- System: SUM52PE
- Assay Remarks: area over the GR curve, 72 h; higher = more effect
# area over the GR curve values compiled below
A number alone suffices; assume GR.

Some molecules with recorded area over the GR curve:
{"columns": ["Molecule", "area over the GR curve, GR"],
 "data": [
  ["CNc1nc(-c2ccc3c(N)n[nH]c3c2)cc(N2C[C@@H](C(=O)NC3CCCCC3)CC[C@H]2C)n1 (max 10 µM)", 0.124],
  ["COc1cccc2c1C(=O)c1c(O)c3c(c(O)c1C2=O)C[C@@](O)(C(=O)CO)C[C@@H]3O[C@H]1C[C@H](N)[C@H](O)[C@H](C)O1 [Doxorubicin] (max 3.162 µM)", 0.321],
  ["CCC(=O)Nc1ccc(C(=O)Nc2ccc(Nc3ncc4c(n3)N(C)c3ccc(C)cc3C(=O)N4C)cc2)cc1", 0.91],
  ["CN(C)C/C=C/C(=O)Nc1ccc(C(=O)N2CCC[C@@H](Nc3ncc(Cl)c(-c4c[nH]c5ccccc45)n3)C2)cc1 [THZ531] (max 1 µM)", 0.222],
  ["CCc1cnn2c(NCc3ccc[n+]([O-])c3)cc(N3CCCC[C@H]3CCO)nc12 (max 1 µM)", 0.491]
]}

Prompt: Specify reported area over the GR curve for the molecule shown: Cc1cc(Nc2ncc(Cl)c(Nc3ccccc3S(=O)(=O)C(C)C)n2)c(OC(C)C)cc1C1CCNCC1 [Ceritinib/LDK378] (max 10 µM)
Response: 0.0274

Prompt: Specify reported area over the GR curve for the molecule shown: CN(C)C(=O)c1cc2cnc(Nc3ccc(N4CCNCC4)cn3)nc2n1C1CCCC1 [LEE011/Ribociclib] (max 10 µM)
Response: 0.215

Prompt: Specify reported area over the GR curve for the molecule shown: Cc1nc(Nc2ncc(C(=O)Nc3c(C)cccc3Cl)s2)cc(N2CCN(CCO)CC2)n1 [Dasatinib] (max 10 µM)
Response: 0.451

Prompt: Specify reported area over the GR curve for the molecule shown: CCN1CCN(Cc2ccc(Nc3ncc(F)c(-c4cc(F)c5nc(C)n(C(C)C)c5c4)n3)nc2)CC1 (max 10 µM)
Response: 0.341

Prompt: Specify reported area over the GR curve for the molecule shown: CN1CCN(C(=O)c2ccc3cc(CCNc4ncnc5ccc(C#N)cc45)ccc3c2)CC1 [senexin b] (max 10 µM)
Response: 0.141

====

- Test system: MCF10A (GM)
- Assay Remarks: area over the GR curve, 72 h; higher = more effect
# area over the GR curve values compiled below
A number alone suffices; assume GR.

Some molecules with recorded area over the GR curve:
{"columns": ["Molecule", "Endpoint Unit", "area over the GR curve"],
 "data": [
  ["CNc1nc(-c2ccc3c(N)n[nH]c3c2)cc(N2C[C@@H](C(=O)NC3CCCCC3)CC[C@H]2C)n1 (max 10 µM)", "GR", 0.0279],
  ["CN1CC[C@H](c2c(O)cc(O)c3c(=O)cc(-c4ccccc4Cl)oc23)[C@H](O)C1 [Flavopiridol] (max 1 µM)", "GR", 0.316]
]}

As a next step, examine the molecule that follows.
Prompt: Specify reported area over the GR curve for the molecule shown: CCCCOc1c(C(=O)c2c(F)cc(C)cc2F)c[nH]c2nncc1-2 (max 10 µM)
Response: 0.423

====

- Tested on: MCF7
- Assay Remarks: GRmax, 72 h; higher = less effect
Use GRmax, 72 h to assign classes; range list: low band (below -0.05 GR), middle band (-0.05 GR to below 0.3 GR), high band (0.3 GR or more)

Check out these entries, answers already filled in.
{"columns": ["Compound", "Target Or System", "Assigned Class"],
 "data": [
  ["NC1(C(=O)N[C@@H](CCO)c2ccc(Cl)cc2)CCN(c2nc[nH]c3nccc2-3)CC1 [AZD5363] (max 10 µM)", "MCF7", "high band"],
  ["Cc1nn(C)c(COc2ccc(N3CCN(S(=O)(=O)N(C)C)CC3)cc2)c1-c1cccc2c(CCCOc3cccc4ccccc34)c(C(=O)O)n(CCN3CCOCC3)c12 (max 10 µM)", "MCF7", "high band"]
]}

Prompt: Looking at Cc1cc(Nc2ncc(Cl)c(Nc3ccccc3S(=O)(=O)C(C)C)n2)c(OC(C)C)cc1C1CCNCC1 [Ceritinib/LDK378] (max 10 µM) , which class would you pick?
Response: low band

Prompt: Looking at CC(=O)Nc1cccc(-n2c(=O)n(C3CC3)c(=O)c3c(Nc4ccc(I)cc4F)n(C)c(=O)c(C)c32)c1 (max 1 µM) , which class would you pick?
Response: high band

Prompt: Looking at CN(C)C/C=C/C(=O)Nc1ccc(O[C@@H]2CCC[C@@H](Nc3ncc(Cl)c(-c4c[nH]c5ccccc45)n3)C2)cc1 [BSJ-01-175] (max 10 µM) , which class would you pick?
Response: low band

Prompt: Looking at CCc1cnn2c(NCc3ccc[n+]([O-])c3)cc(N3CCCC[C@H]3CCO)nc12 (max 1 µM) , which class would you pick?
Response: low band

Prompt: Looking at CC(C)Nc1cc(-c2c[nH]c(C(=O)N[C@H](CO)c3cccc(Cl)c3)c2)c(Cl)cn1 [BVD523] (max 10 µM) , which class would you pick?
Response: high band

Prompt: Looking at CN(C)C(=O)c1cc2cnc(Nc3ccc(N4CCNCC4)cn3)nc2n1C1CCCC1 [LEE011/Ribociclib] (max 10 µM) , which class would you pick?
Response: high band

Prompt: Looking at Nc1cc(C(F)(F)F)c(-c2cc(N3CCOCC3)nc(N3CCOCC3)n2)cn1 [Buparlisib/NVP-BKM120] (max 10 µM) , which class would you pick?
Response: low band

Prompt: Looking at CCc1cncnc1N1CCN(Cc2nc3ccc(C(F)(F)F)cc3[nH]2)CC1 (max 10 µM) , which class would you pick?
Response: high band

Prompt: Looking at CNC(=O)c1cccc(-c2ccc3c(N4CCOC[C@@H]4C)nc(N4CCOC[C@@H]4C)nc3n2)c1 [AZD2014] (max 10 µM) , which class would you pick?
Response: middle band

Prompt: Looking at Cc1nc(Nc2ncc(C(=O)Nc3c(C)cccc3Cl)s2)cc(N2CCN(CCO)CC2)n1 [Dasatinib] (max 10 µM) , which class would you pick?
Response: middle band

====

# area over the GR curve values compiled below
- Tested on: PDX1328
- Assay Remarks: area over the GR curve, 72 h; higher = more effect;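 also: Dye Drop or Deep Dye Drop imaging of viable cells in 384-well plates (Hoechst nuclei, LIVE/DEAD dye), nine half-log doses, GR normalized to DMSO controls and time-zero plates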
A number alone suffices; assume GR.

Some molecules with recorded area over the GR curve:
{"columns": ["Molecule", "area over the GR curve [GR]"],
 "data": [
  ["CCN1CCN(Cc2ccc(Nc3ncc(F)c(-c4cc(F)c5nc(C)n(C(C)C)c5c4)n3)nc2)CC1 (max 10 µM)", 0.676],
  ["Nc1ccc(-c2ccc3ncc4ccc(=O)n(-c5cccc(C(F)(F)F)c5)c4c3c2)cn1 [Torin2] (max 1 µM)", 0.643],
  ["Cc1nc(Nc2ncc(C(=O)Nc3c(C)cccc3Cl)s2)cc(N2CCN(CCO)CC2)n1 [Dasatinib] (max 10 µM)", 0.819],
  ["CO[C@H]1C[C@@H]2CC[C@@H](C)[C@@](O)(O2)C(=O)C(=O)N2CCCC[C@H]2C(=O)O[C@H]([C@H](C)C[C@@H]2CC[C@@H](OCCO)[C@H](OC)C2)CC(=O)[C@H](C)/C=C(\\C)[C@@H](O)[C@@H](OC)C(=O)[C@H](C)C[C@H](C)/C=C/C=C/C=C/1C [Everolimus] (max 10 µM)", 0.642]
]}

As a next step, examine the molecule that follows.
Prompt: Specify reported area over the GR curve for the molecule shown: CS(=O)(=O)N1CCN(Cc2cc3nc(-c4cccc5[nH]ncc45)nc(N4CCOCC4)c3s2)CC1 [Pictilisib/GDC0941] (max 10 µM)
Response: 0.296

====

# GRmax, 72 h values compiled below
- Test system: EFM19
- Assay Remarks: GRmax, 72 h; higher = less effect;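 also: breast cell lines in 384-well plates, nine doses across a 10^4 range, Dye Drop imaging of viable cells vs DMSO and time-zero plates, GR 0 means no net growth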
A number alone suffices; assume GR.

{"columns": ["Compound", "Assay Result"],
 "data": [
  ["CC(=O)c1c(C)c2cnc(Nc3ccc(N4CCN(CCOCCOCCOCCNC(=O)COc5cccc6c5C(=O)N(C5CCC(=O)NC5=O)C6=O)CC4)cn3)nc2n(C2CCCC2)c1=O (stereo unspecified) [BSJ-03-123] (max 10 µM)", 0.156]
]}

Prompt: Specify reported GRmax, 72 h for the compound shown: CN(C)C/C=C/C(=O)Nc1ccc(C(=O)Nc2cccc(Nc3cc(-c4c[nH]c5ccccc45)ncn3)c2)cc1 [THZ-P1-2] (max 10 µM)
Response: 0.124

Prompt: Specify reported GRmax, 72 h for the compound shown: CCNC(=O)c1noc(-c2cc(C(C)C)c(O)cc2O)c1-c1ccc(CN2CCOCC2)cc1 [Luminespib/NVP-AUY922] (max 1 µM)
Response: 0.0263

Prompt: Specify reported GRmax, 72 h for the compound shown: CC(=O)O[C@H]1C(=O)[C@@]2(C)[C@H]([C@H](OC(=O)c3ccccc3)[C@]3(O)C[C@H](OC(=O)[C@H](O)[C@@H](NC(=O)c4ccccc4)c4ccccc4)C(C)=C1C3(C)C)[C@]1(OC(C)=O)CO[C@@H]1C[C@@H]2O [Paclitaxel] (max 1 µM)
Response: -0.639

Prompt: Specify reported GRmax, 72 h for the compound shown: CCCCOc1c(C(=O)c2c(F)cc(C)cc2F)c[nH]c2nncc1-2 (max 10 µM)
Response: 0.188

Prompt: Specify reported GRmax, 72 h for the compound shown: CC(=O)c1c(C)c2cnc(Nc3ccc(N4CCNCC4)cn3)nc2n(C2CCCC2)c1=O (max 3.162 µM)
Response: 0.308

Values compiled from the supplement of paper PMC9663587.
